Tgt: Cell division control protein 42 homolog (Homo sapiens)
Protocol Text: inhibition of fluorescent GTP binding to wildtype Cdc42 – biochemical, multiplex bead flow cytometry, Bodipy-FL-GTP, dose response (AID 1334);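 further: potency of inhibiting fluorescent GTP binding to Cdc42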
Assay Setup: bead-based flow cytometry, Bodipy-FL-GTP binding to GST-Cdc42
pEC50: −log10 of the molar value.
Decision: pEC50 >= 5 yields t, all other cases yield f.

Query: State whether the measured pEC50 reaches 5, counting equality as reaching it, for NS(=O)(=O)c1ccc(N2N=C(c3ccccc3)CC2c2cccc(F)c2)cc1 (stereo not drawn)
Reply: t

Query: State whether the measured pEC50 reaches 5, counting equality as reaching it, for Cc1cc(C)c(C)c(C(=O)c2ccccc2C(=O)O)c1C
Reply: t

Query: State whether the measured pEC50 reaches 5, counting equality as reaching it, for CS(=O)(=O)c1ccc(C(=O)OCC(=O)NC(=O)C2CCCCC2)cc1[N+](=O)[O-]
Reply: f

Query: State whether the measured pEC50 reaches 5, counting equality as reaching it, for CC(C)C(NCc1c(Cl)cccc1Cl)C(=O)O (stereo not drawn)
Reply: t

Query: State whether the measured pEC50 reaches 5, counting equality as reaching it, for COC(=O)c1cccnc1SCCc1ccccc1
Reply: f

Query: State whether the measured pEC50 reaches 5, counting equality as reaching it, for CCc1ccc(NS(=O)(=O)c2ccc3[nH]cc(C(=O)N4CCc5ccccc54)c(=O)c3c2)cc1
Reply: f

Query: State whether the measured pEC50 reaches 5, counting equality as reaching it, for O=C(NCc1cccs1)c1cccnc1C(=O)O
Reply: t
